target: T1, myc-tagged human EphB4 on transfected CHO cells (human, UniProt P54760 16-987)
T1 construct: whole, on cells; also called CHO-EphB4; CHO-hEphB4; not shown: myc tag
T1 sequence (looked up): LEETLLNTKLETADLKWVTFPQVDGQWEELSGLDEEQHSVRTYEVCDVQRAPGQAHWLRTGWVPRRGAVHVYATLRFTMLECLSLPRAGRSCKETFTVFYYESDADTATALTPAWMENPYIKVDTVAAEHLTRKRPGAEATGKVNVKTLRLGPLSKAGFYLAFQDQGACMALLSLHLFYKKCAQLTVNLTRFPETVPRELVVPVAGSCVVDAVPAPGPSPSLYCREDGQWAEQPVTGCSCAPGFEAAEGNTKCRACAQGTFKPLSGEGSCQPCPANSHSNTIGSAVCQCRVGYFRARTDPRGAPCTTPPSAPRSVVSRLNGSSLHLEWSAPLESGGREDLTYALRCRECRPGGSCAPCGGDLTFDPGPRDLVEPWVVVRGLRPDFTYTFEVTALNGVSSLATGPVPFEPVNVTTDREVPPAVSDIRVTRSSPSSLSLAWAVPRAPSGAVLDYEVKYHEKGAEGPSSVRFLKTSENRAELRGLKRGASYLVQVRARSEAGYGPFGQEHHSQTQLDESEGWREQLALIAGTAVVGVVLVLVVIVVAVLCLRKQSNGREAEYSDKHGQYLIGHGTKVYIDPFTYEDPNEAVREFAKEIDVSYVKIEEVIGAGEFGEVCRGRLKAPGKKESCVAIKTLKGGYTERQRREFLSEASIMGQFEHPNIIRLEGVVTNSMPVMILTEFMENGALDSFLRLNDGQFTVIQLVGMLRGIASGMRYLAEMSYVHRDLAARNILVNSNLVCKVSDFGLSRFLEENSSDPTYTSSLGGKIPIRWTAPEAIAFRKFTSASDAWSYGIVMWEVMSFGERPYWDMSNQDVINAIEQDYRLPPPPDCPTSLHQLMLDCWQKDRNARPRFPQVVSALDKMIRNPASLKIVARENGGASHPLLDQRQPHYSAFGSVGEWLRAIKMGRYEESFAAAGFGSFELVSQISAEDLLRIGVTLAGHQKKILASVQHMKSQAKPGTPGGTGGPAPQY
experiment: FACS titration of IgG4-Pro on CHO-EphB4 cells
property: pEC50
The read-out pEC50 is expressed as -log10 of concentration in moles per litre.

Item MOR07721 IgG4-Pro (antibody, V domains shown, Fab MOR07721 converted into human IgG4-Pro format) VH: QVQLVESGGGLVQPGGSLRLSCAASGFTFNNAWMSWVRQAPGKGLEWVSTIEAKMPNGATFYAAPVKGRFTISRDNSKNTLYLQMNSLRAEDTAVYYCARKGMSFYNNKYAKSMFDLWGQGTLVTVSS VL: DIELTQPPSVSVAPGQTARISCSGDNLGKKYVHWYQQKPGQAPVLVIYYDSKRPSGIPERFSGSNSGNTATLTISGTQAEDEADYYCSAWTTTMMHIVFGGGTKLTVLG has what recorded pEC50?
9.92

Reported pEC50 for MOR07953 IgG4-Pro (antibody, V domains shown, Fab MOR07953 converted into human IgG4-Pro format) VH: QVELVESGGGLVQPGGSLRLSCAASGFTFNNAWMSWVRQAPGKGLEWVSAINAKGQFTSYADSVKGRFTISRDNSKNTLYLQMNSLRAEDTAVYYCARKGMSFYNNKYAKSMFDLWGQGTLVTVSS VL: DIELTQPPSVSVAPGQTARISCSGDNLGKKYVHWYQQKPGQAPVLVIYYDSKRPSGIPERFSGSNSGNTATLTISGTQAEDEADYYCQTWTLSHMGNVFGGGTKLTVLG : what is it?
9.77

Please look up its pEC50: MOR07724 IgG4-Pro (antibody, V domains shown, Fab MOR07724 converted into human IgG4-Pro format) VH: QVQLVESGGGLVQPGGSLRLSCAASGFTFNNAWMSWVRQAPGKGLEWVSGISADGVHKFYADSVKGRFTISRDNSKNTLYLQMNSLRAEDTAVYYCARKGMSFYNNKYAKSMFDLWGQGTLVTVSS VL: DIELTQPPSVSVAPGQTARISCSGDNLGKKYVHWYQQKPGQAPVLVIYYDSKRPSGIPERFSGSNSGNTATLTISGTQAEDEADYYCSAWTTTMMHIVFGGGTKLTVLG
9.74

Origin of measurements: patent US20090137002A1
